Experiment: CD40 pathway blockade in BL2 B cells – cell-based, luciferase reporter, single point, primary screen (AID 1053188);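 also: 0% = neutral control wells and 100% = IKK inhibitor VII at 50 µM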
Settings: BL2 NF-kB luciferase reporter, CD40L-induced, 4 h; at 10 µM
About 780 (0.94%) of roughly 83,000 compounds were called active.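 The calls were made as follows: active = mean inhibition of at least 50% with a set share of replicates also reaching that level; inconclusive = no clear call, values can overlap the other calls; inactive = the rest.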 Shown is part of a subset that was picked to be rich in actives.
Labels: yes (1) = active, no (0) = inactive

compound | label_class
CC(=O)OC1C2(CC3N4C(=O)C5(CO)SSC4(CC31O)C(=O)N5C)OC(C)C(C)(C)C2=O (stereo not given) | yes (1)
CCOC(=O)C1(CCc2ccccc2)CCN(Cc2ccco2)CC1 | no (0)
Cc1cc(C(=O)OCC(=O)Nc2c(F)cccc2F)c(C)n1C1CC1 | no (0)
c1ccc(CC2CCCCN2)cc1 (stereo not given) | no (0)
CCC(C)(O)C(=O)OC1C(=O)OC2CC3C(C)=CC(=O)C(O)C3(C)C3C4(O)OCC23C1C(C)C4O (stereo not given) | yes (1)
